The reported measurements were obtained from patent US5350765A.

Molecular target: 5-Lipoxygenase (Homo sapiens)
Construct: endogenous in cells
Sequence (P09917 whole entry): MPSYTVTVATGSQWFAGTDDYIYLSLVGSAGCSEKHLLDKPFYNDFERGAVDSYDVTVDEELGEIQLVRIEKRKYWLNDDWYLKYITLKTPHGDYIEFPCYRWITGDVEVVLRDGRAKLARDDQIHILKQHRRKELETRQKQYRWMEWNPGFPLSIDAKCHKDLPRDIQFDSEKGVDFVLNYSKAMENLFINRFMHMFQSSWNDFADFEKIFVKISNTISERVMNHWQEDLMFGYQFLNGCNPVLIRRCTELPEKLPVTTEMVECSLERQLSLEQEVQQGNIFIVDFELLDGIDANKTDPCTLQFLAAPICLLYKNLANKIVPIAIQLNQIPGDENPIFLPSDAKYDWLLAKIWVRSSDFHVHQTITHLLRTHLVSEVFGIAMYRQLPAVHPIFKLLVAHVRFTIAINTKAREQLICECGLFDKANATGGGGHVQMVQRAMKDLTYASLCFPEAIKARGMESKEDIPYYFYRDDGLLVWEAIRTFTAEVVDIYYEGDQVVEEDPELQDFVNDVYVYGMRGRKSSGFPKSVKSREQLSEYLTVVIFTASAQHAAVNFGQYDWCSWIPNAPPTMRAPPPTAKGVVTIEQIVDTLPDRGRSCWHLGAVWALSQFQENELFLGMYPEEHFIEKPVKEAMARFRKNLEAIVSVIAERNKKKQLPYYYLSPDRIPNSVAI
Assay: Inhibition of calcium ionophore-induced LTB4 biosynthesis in human whole blood
Details: human heparinized whole blood; 15 min preincubation at 37° C.; A23187 8.3 μM, 30 min; LTB4 by radioimmunoassay; read-out: IC50, in vitro inhibitory potency against 5-lipoxygenase from stimulated LTB4 formation in human whole blood
Description: Inhibition of leukotriene biosynthesis was evaluated in an assay, involving calcium ionophore-induced LTB4 biosynthesis expressed human whole blood. […] The methanol extract was analyzed for LTB4 using a commercially available radioimmunoassay.
measured_quantity: pIC50
Conceptually, pIC50 converts a concentration in mol/L into minus its log10.

Sample answers from the record:
>>> measured_number("COC1(/C=C/C(=O)NCc2ccc3ccccc3c2)CCOCC1")
6.59
>>> measured_number("COC1(CCCOCc2ccc3ccccc3c2)CCOCC1")
5.82
>>> measured_number("COC1(/C=C/COCc2ccc3ccccc3c2)CCOCC1")
6.15

## Input Consider the compound shown here: COC1(C#CCOCc2ccc3ccccc3c2)CCOCC1 What is its recorded pIC50?
## Output 5.42
